Test system: SEM cells
Assay: cell viability relative to DMSO control; higher = less cytotoxic
Settings: RPMI 5 mM glucose + 10% dialyzed FBS; 48 h; 46.1 µM
Entries and their cell viability values follow.
measured-property: cell viability (%)

[
  {
    "compound": "Cc1cccc(Nc2nc(N[C@@H]3CCCC[C@@H]3N)ncc2C(N)=O)c1",
    "value-observed": 25
  },
  {
    "compound": "NNC(=O)c1ccncc1",
    "value-observed": 82.8
  },
  {
    "compound": "COc1ccc2c(c1)CC[C@@H](CN(C)CC(=O)O)[C@H]2c1ccccc1",
    "value-observed": 19.9
  },
  {
    "compound": "O=C1C(CCC(O)c2ccc(F)cc2)C(c2ccc(O)cc2)N1c1ccc(F)cc1 (stereo not given)",
    "value-observed": 108
  },
  {
    "compound": "N[S+](=O)([O-])c1cc2c(cc1Cl)NCN[S+]2(=O)[O-]",
    "value-observed": 151
  }
]

----------
Entries and their cell viability values follow.
System: NOMO1
Experiment: cell viability relative to DMSO control; higher = less cytotoxic
Conditions: HPLM + 10% dialyzed FBS; 48 h; 0.000781 µM
measured-property: cell viability (%)

[
  {
    "molecule": "NC(=O)c1c(OCc2c(F)cc(Br)cc2F)nsc1NC(=O)NCCCCN1CCCC1",
    "value-observed": 89.9
  },
  {
    "molecule": "O=C(O)CCCc1ccc(N(CCCl)CCCl)cc1",
    "value-observed": 111
  },
  {
    "molecule": "CC1(C)NC(=O)N(c2ccc([N+](=O)[O-])c(C(F)(F)F)c2)C1=O",
    "value-observed": 93.3
  },
  {
    "molecule": "COc1cc2nc(N3CCN(C(=O)c4ccco4)CC3)nc(N)c2cc1OC",
    "value-observed": 77.8
  },
  {
    "molecule": "COCCNCCCn1c(C(=O)CF)c(-c2ccc(C)cc2)c2c(N)ncnc21",
    "value-observed": 94.7
  },
  {
    "molecule": "CNCCN(C)Cc1c[nH]nc1-c1ccc(O[C@H]2C[C@H](OCCC3CCOCC3)C2)cc1",
    "value-observed": 115
  },
  {
    "molecule": "CC(=O)O[C@@]12CO[C@@H]1C[C@H](O)[C@]3(C)[C@@H]2[C@H](OC(=O)C4=CC=CC=C4)[C@]5(O)C[C@H](O)/C(=C(/[C@@H](O)C3=O)C5(C)C)C",
    "value-observed": 109
  },
  {
    "molecule": "O=C1CCc2cc(OCCCCc3nnnn3C3CCCCC3)ccc2N1",
    "value-observed": 92.2
  },
  {
    "molecule": "COc1cc([C@@H]2c3cc4c(cc3[C@@H](O)C3COC(=O)C32)OCO4)cc(OC)c1O (some centres not stated)",
    "value-observed": 88.8
  },
  {
    "molecule": "Clc1ccc(C(Cn2ccnc2)OCc2ccc(Sc3ccccc3)cc2)c(Cl)c1 (configuration not stated)",
    "value-observed": 126
  },
  {
    "molecule": "CCOC\\1=C(/C(=O)NC2=CC=C(OC3=C(Cl)C(=NC=C3)N)C(=C2)F)C(=O)N(\\C=C1)C4=CC=C(F)C=C4",
    "value-observed": 86.9
  },
  {
    "molecule": "CC/C(=C(\\c1ccccc1)c1ccc(OCCN(C)C)cc1)c1ccccc1",
    "value-observed": 95
  },
  {
    "molecule": "N[S+](=O)([O-])c1cc2c(cc1Cl)NCN[S+]2(=O)[O-]",
    "value-observed": 111
  },
  {
    "molecule": "O=C1C(CCC(O)c2ccc(F)cc2)C(c2ccc(O)cc2)N1c1ccc(F)cc1 (configuration not stated)",
    "value-observed": 111
  },
  {
    "molecule": "CC1(C)CCC(=C(\\C1)C2=CC=C(Cl)C=C2)/CN3CCN(CC3)C4=CC(=C(C=C4)C(=O)N[S+]([O-])(=O)C5=CC=C(NCC6CCOCC6)C(=C5)[N+]([O-])=O)OC7=CN=C8[NH]C=CC8=C7",
    "value-observed": 103
  },
  {
    "molecule": "CCNC(=O)c1noc(-c2cc(C(C)C)c(O)cc2O)c1-c1ccc(CN2CCOCC2)cc1",
    "value-observed": 91.6
  },
  {
    "molecule": "CCCCCCCN(CC)CCCC(O)c1ccc(NS(C)(=O)=O)cc1.CCCCCCCN(CC)CCCC(O)c1ccc(NS(C)(=O)=O)cc1.O=C(O)/C=C/C(=O)O (configuration not stated)",
    "value-observed": 117
  }
]
